# SUBJECT_OF_TEST: Sodium-dependent serotonin transporter (Homo sapiens)
# Sequence (P31645 whole entry): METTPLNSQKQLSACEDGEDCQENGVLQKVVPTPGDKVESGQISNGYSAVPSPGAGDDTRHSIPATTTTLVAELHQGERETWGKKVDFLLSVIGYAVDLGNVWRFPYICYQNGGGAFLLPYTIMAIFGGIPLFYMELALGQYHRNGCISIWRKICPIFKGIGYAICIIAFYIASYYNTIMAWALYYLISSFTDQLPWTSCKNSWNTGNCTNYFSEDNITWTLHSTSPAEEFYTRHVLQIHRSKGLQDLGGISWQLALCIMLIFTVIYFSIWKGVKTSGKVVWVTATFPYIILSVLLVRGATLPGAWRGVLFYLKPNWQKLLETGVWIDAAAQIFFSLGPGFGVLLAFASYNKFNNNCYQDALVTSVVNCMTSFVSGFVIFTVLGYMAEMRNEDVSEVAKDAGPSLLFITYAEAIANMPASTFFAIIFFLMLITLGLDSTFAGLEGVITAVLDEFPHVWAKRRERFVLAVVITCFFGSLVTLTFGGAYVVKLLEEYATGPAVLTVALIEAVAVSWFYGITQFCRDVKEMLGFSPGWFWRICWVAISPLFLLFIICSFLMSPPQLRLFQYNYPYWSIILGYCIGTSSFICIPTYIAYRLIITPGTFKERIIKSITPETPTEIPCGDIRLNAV
pIC50: −log10 of the molar value.
PARAMETER: pIC50

• COc1cccc2c1O[C@@H](CN1C3C=C(c4cccc5ccccc45)CC1CC3)CO2 (stereo not given in full) = 6.02
• COc1cccc2c1O[C@@H](CN1C3C=C(c4ccc(Cl)c(Cl)c4)CC1CC3)CO2 (stereo not given in full) = 6.59
• COc1cccc2c1O[C@@H](CN1C3C=C(c4cccc5cccnc45)CC1CC3)CO2 (stereo not given in full) = 6.96
• COc1cccc2c1O[C@@H](CN1C3C=C(n4ccc5cc(F)ccc54)CC1CC3)CO2 (stereo not given in full) = 6.86
• COc1cccc2c1O[C@@H](CN1C3C=C(c4ccc5ccccc5c4)CC1CC3)CO2 (stereo not given in full) = 6.12

###

Listing of recorded IC50 by entry.
# SUBJECT_OF_TEST: 5-hydroxytryptamine receptor 1A (Homo sapiens)
# Sequence (P08908 whole entry): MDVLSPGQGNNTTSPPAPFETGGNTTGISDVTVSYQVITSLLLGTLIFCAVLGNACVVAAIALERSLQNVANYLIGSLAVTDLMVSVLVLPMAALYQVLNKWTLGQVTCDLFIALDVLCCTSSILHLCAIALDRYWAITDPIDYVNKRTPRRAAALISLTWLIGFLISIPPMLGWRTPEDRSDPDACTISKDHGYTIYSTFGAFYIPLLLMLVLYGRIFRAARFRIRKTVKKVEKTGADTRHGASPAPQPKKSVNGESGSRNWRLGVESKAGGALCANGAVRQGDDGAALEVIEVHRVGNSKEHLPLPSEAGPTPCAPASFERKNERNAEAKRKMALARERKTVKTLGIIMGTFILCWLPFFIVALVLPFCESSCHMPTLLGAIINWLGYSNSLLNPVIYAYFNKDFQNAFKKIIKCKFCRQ
# MEASUREMENT_NOTES: Agonistic activity of compound towards 5-hydroxytryptamine 1A receptor was evaluated by [35S]GTP-gamma-S, stimulated cAMP assay
# Format: functional
PARAMETER: IC50 (nM)

- COc1cccc2c1O[C@@H](CN1[C@@H]3CC[C@H]1C[C@](O)(c1ccccc1)C3)CO2: 25
- COc1cccc2c1O[C@@H](CN1[C@@H]3CC[C@H]1C[C@](O)(c1ccc4ccccc4c1)C3)CO2: 9.85
- COc1cccc2c1O[C@@H](CN1[C@@H]3CC[C@H]1C[C@](O)(c1ccccn1)C3)CO2: 1480
- COc1cccc2c1O[C@@H](CN1[C@@H]3CC[C@H]1C[C@](O)(c1csc4ccccc14)C3)CO2: 36

###

# SUBJECT_OF_TEST: Adrenergic receptor alpha-1 (Rattus norvegicus, UniProt P15823+P23944+P43140)
# MEASUREMENT_NOTES: Displacement of [3H]prazosin from alpha-1 adrenergic receptor
# Format: protein assay
Listing of recorded Ki by entry.
PARAMETER: Ki (nM)

• COc1cccc2c1O[C@@H](CN1[C@@H]3CC[C@H]1C[C@](O)(c1csc4ccccc14)C3)CO2 = 106
• CCOc1cccc2c1O[C@@H](CN1[C@@H]3CC[C@H]1C[C@](O)(c1ccccc1)C3)CO2 = 32.7
• CCOc1cccc2c1O[C@@H](CN1[C@@H]3CC[C@H]1C[C@](O)(c1cccc(C(F)(F)F)c1)C3)CO2 = 12.9
• CCOc1cccc2c1O[C@@H](CN1[C@@H]3CC[C@H]1C[C@](O)(c1ccc4ccccc4c1)C3)CO2 = 103.5
• COc1cccc2c1O[C@@H](CN1[C@@H]3CC[C@H]1C[C@](O)(c1ccc4ccccc4c1)C3)CO2 = 42
• CCOc1cccc2c1O[C@@H](CN1[C@@H]3CC[C@H]1C[C@](O)(c1csc4ccccc14)C3)CO2 = 123.5
• CCOc1cccc2c1O[C@@H](CN1[C@@H]3CC[C@H]1C[C@](O)(c1ccccn1)C3)CO2 = 147
• COc1cccc2c1O[C@@H](CN1[C@@H]3CC[C@H]1C[C@](O)(c1cccc(C(F)(F)F)c1)C3)CO2 = 9.9
• COc1cccc2c1O[C@@H](CN1C3C=C(c4ccc5ccccc5c4)CC1CC3)CO2 (some centres not stated) = 229
• COc1cccc2c1O[C@@H](CN1C3C=C(n4ccc5cc(F)ccc54)CC1CC3)CO2 (some centres not stated) = 71
• COc1cccc2c1O[C@@H](CN1C3C=C(c4cccc5cccnc45)CC1CC3)CO2 (some centres not stated) = 46.2

###

# SUBJECT_OF_TEST: UniProtKB P08908
# Sequence (P08908 whole entry): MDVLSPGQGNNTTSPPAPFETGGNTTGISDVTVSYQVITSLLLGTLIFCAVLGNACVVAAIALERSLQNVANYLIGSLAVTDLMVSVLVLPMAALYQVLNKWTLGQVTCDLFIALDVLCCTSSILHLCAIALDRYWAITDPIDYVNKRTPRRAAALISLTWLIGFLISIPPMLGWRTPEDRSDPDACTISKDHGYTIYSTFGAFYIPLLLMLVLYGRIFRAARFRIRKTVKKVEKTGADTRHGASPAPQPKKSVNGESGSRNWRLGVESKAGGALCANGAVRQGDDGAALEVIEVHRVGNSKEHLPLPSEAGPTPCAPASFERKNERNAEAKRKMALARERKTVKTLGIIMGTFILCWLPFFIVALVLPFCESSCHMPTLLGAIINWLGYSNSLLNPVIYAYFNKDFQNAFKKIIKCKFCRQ
Listing of recorded Ki by entry.
PARAMETER: Ki (nM)

- COc1cccc2c1O[C@@H](CN1C3C=C(n4ccc5cc(F)ccc54)CC1CC3)CO2 (stereo partly specified): 128
- CCOc1cccc2c1O[C@@H](CN1[C@@H]3CC[C@H]1C[C@](O)(c1cccc(C(F)(F)F)c1)C3)CO2: 2.92
- CCOc1cccc2c1O[C@@H](CN1[C@@H]3CC[C@H]1C[C@](O)(c1ccc4ccccc4c1)C3)CO2: 5.87
- COc1cccc2c1O[C@@H](CN1C3C=C(c4cccc5ccccc45)CC1CC3)CO2 (stereo partly specified): 357
- COc1cccc2c1O[C@@H](CN1[C@@H]3CC[C@H]1C[C@](O)(c1ccc4ccccc4c1)C3)CO2: 0.81
- COc1cccc2c1O[C@@H](CN1[C@@H]3CC[C@H]1C[C@](O)(c1cccc(C(F)(F)F)c1)C3)CO2: 0.33

These data points were gathered from ChEMBL document CHEMBL1147408.
